- Species: Homo sapiens
- Method notes: Inhibition of dual specificity Cell division cycle 25
Readout type: Activity (µM)

Example entries and their recorded answers appear below.
O=C(NC1CCCCC1)C(c1ccnc2ccccc12)N(CCc1c[nH]c2ccccc12)C(=O)c1ccc(CP(=O)(O)O)cc1 (stereo unspecified)
16
O=C(O)C(Oc1ccc(C(C(=O)NC2CCCCC2)N(Cc2ccc3c(c2)OCO3)C(=O)c2ccc(CP(=O)(O)O)cc2)cc1)C(=O)O (stereo unspecified)
3

(A) O=C(O)C(Oc1ccc(C(=O)N(Cc2ccc3c(c2)OCO3)C(C(=O)NC2CCCCC2)c2ccc(OCP(=O)(O)O)cc2)cc1)C(=O)O (stereo unspecified)
(B) O=C(NC(Cc1ccc(O)cc1)C(=O)N(CCc1c[nH]c2ccccc12)C(C(=O)NCCN1CCOCC1)c1ccc(OCP(=O)(O)O)cc1)OCC1c2ccccc2-c2ccccc21 (stereo unspecified)
(C) CC(C)=CCCC(C)C(C(=O)NC1CCCCC1)N(Cc1ccc2c(c1)OCO2)C(=O)c1ccc(CP(=O)(O)O)cc1 (stereo unspecified)
(D) O=C(O)C(Oc1ccc(C(=O)N(Cc2ccc3c(c2)OCO3)C(C(=O)NC2CCCCC2)c2ccc(OC(C(=O)O)C(=O)O)cc2)cc1)C(=O)O (stereo unspecified)
# input Give the ascending ranking of the items by reported Activity. When ranking, write the labels in the order the request describes.
# output A, D, B, C
(A: 0.7 µM, D: 3 µM, B: 8 µM, C: 23 µM)

(a) CC(C)=CCCC(C)C(C(=O)NC1CCCCC1)N(CCc1c[nH]c2ccccc12)C(=O)c1ccc(CP(=O)(O)O)cc1 (stereo unspecified)
(b) CC(C)/C=C\CC(C)C(C(=O)NCC(=O)O)N(CCc1c[nH]c2ccccc12)C(=O)c1cc(Br)cc(Br)c1O (stereo unspecified)
(c) O=C(O)CNC(=O)C(c1nccs1)N(Cc1ccc2c(c1)OCO2)C(=O)c1ccc(CP(=O)(O)O)cc1 (stereo unspecified)
# input List these items ordered by Activity, big to small. When ranking, write the labels in the order the request describes.
# output c, a, b
(c: 35 µM, a: 23 µM, b: 15 µM)

(1) CC(C)=CCCC(C)C(C(=O)NC1CCCCC1)N(CCc1c[nH]c2ccccc12)C(=O)c1ccc(C(F)(F)P(=O)(O)O)cc1 (stereo unspecified)
(2) Cc1ccc(S(=O)(=O)CNC(=O)C(c2ccc(OCP(=O)(O)O)cc2)N(CCc2c[nH]c3ccccc23)C(=O)c2cc(Br)cc(Br)c2O)cc1 (stereo unspecified)
# input // returns 1 or 2 , whichever has the lower Activity Identify your selection by its label.
# output 2

----------
- Assayed system: UniProt P51452
- Sequence (P51452 whole entry, looked up): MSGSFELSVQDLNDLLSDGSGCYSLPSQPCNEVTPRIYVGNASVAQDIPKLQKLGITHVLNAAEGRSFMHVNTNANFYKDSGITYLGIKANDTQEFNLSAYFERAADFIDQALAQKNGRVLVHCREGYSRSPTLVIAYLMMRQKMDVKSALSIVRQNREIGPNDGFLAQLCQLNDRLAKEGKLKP
- Method notes: Compound was evaluated for its activity against VHR
Readout type: Activity (µM)

Example entries and their recorded answers appear below.
O=C(NC1CCCCC1)C(c1ccnc2ccccc12)N(CCc1c[nH]c2ccccc12)C(=O)c1ccc(CP(=O)(O)O)cc1 (centres undefined)
87
O=C(O)C(Oc1ccc(C(=O)N(Cc2ccc3c(c2)OCO3)C(C(=O)NC2CCCCC2)c2ccc(OC(C(=O)O)C(=O)O)cc2)cc1)C(=O)O (centres undefined)
9
O=C(NC(Cc1ccc(O)cc1)C(=O)N(CCc1c[nH]c2ccccc12)C(C(=O)NCCN1CCOCC1)c1ccc(OCP(=O)(O)O)cc1)OCC1c2ccccc2-c2ccccc21 (centres undefined)
6.1
CC(C)=CCCC(C)C(C(=O)NC1CCCCC1)N(Cc1ccc2c(c1)OCO2)C(=O)c1ccc(CP(=O)(O)O)cc1 (centres undefined)
19
O=C(O)C(Oc1ccc(C(C(=O)NC2CCCCC2)N(Cc2ccc3c(c2)OCO3)C(=O)c2ccc(CP(=O)(O)O)cc2)cc1)C(=O)O (centres undefined)
11

(1) CC(C)=CCCC(C)C(C(=O)NC1CCCCC1)N(CCc1c[nH]c2ccccc12)C(=O)c1ccc(CP(=O)(O)O)cc1 (centres undefined)
(2) O=C(O)C(Oc1ccc(C(=O)N(Cc2ccc3c(c2)OCO3)C(C(=O)NC2CCCCC2)c2ccc(OCP(=O)(O)O)cc2)cc1)C(=O)O (centres undefined)
# input // returns 1 or 2 , whichever has the lower Activity Identify your selection by its label.
# output 2

Cited source: ChEMBL document CHEMBL1132001
